Catalogue of compounds with associated melting point
Property: melting point

# Compound, Property, Reading
data = [
    ("COCCC(=O)Oc1c(OC)ccnc1C(=O)Nc1cccc(NC(=O)c2ccc(C(F)(F)F)cc2)c1 [Compound 718]", "melting point", "115 to 118 °C"),
    ("COc1ccnc(C(=O)NC2COC(=O)[C@H]3CCCC[C@@H]3C(=O)OC2)c1O [Compound 377]", "melting point", "234 to 235 °C"),
    ("COc1ccnc(C(=O)Nc2ccc(Oc3cc(C(F)(F)F)nc(C(F)(F)F)c3)cc2)c1O [Compound 466]", "melting point", "198 to 200 °C"),
]

---

tested on: Septoria tritici—SEPTTR; test: Leaf Blotch of Wheat, in vivo whole plant, 24 Hour Protectant; conditions: Zymoseptoria tritici, 24 h, 100 ppm spray, wheat, 24 hour protectant; control of fungal infection vs untreated plants; read-out: SEPTTR in vivo 1 Day Protectant
Catalogue of molecules with associated pest or weed control at 100 ppm

# Molecule, pest or weed control at 100 ppm
rows = [
    ("COc1ccnc(C(=O)NC(COC(=O)CC(C)OC(=O)C(C)C)C(=O)OC(C)C)c1O (centres unmarked)", "< 25%"),
    ("COc1ccc(Oc2ccccc2NC(=O)c2nccc(OC)c2O)cc1", "< 25%"),
    ("COc1ccnc(C(=O)Nc2ccccc2Oc2ccccc2C#N)c1O", "< 25%"),
    ("COc1ccnc(C(=O)Nc2cc(C)c(OC(=O)C(C)C)c(C)c2)c1O", "25 to 74%"),
    ("COc1cccc(Oc2cccc(NC(=O)c3nccc(OC)c3O)c2)c1", "25 to 74%"),
    ("COc1ccnc(C(=O)Nc2ccc(Oc3ccc(C#N)cc3)cc2)c1O", "< 25%"),
    ("COc1ccnc(C(=O)Nc2ccc(C(=O)Oc3ccc(C(F)(F)F)cc3)cc2)c1O", "25 to 74%"),
    ("COc1ccc(Oc2ccc(NC(=O)c3nccc(OC)c3O)cc2)cc1", "< 25%"),
    ("COc1ccccc1Oc1cccc(NC(=O)c2nccc(OC)c2O)c1", "< 25%"),
    ("COc1ccnc(C(=O)N[C@@H](CO)C(=O)O[C@@H](C)[C@H](OC(=O)C(C)C)[C@@H](Cc2ccccc2)C(=O)O)c1O", "25 to 74%"),
    ("COc1ccnc(C(=O)N[C@H]2COC(=O)[C@H](Cc3ccccc3)[C@@H](OC(=O)OC(C)C)[C@H](C)OC2=O)c1O", "25 to 74%"),
    ("COc1ccnc(C(=O)N[C@H]2COC(=O)[C@H](Cc3ccccc3)[C@@H](OC(=O)c3ccccc3)[C@H](C)OC2=O)c1O", "25 to 74%"),
    ("COc1ccnc(C(=O)Nc2ccc(C(=O)c3cccc(C(F)(F)F)c3)cc2)c1O", "< 25%"),
    ("COc1ccnc(C(=O)Nc2cccc(Oc3ccccc3Cl)c2)c1O", "< 25%"),
    ("COC(=O)C(COC(=O)CCc1ccccc1)NC(=O)c1nccc(OC)c1O (centres unmarked)", "25 to 74%"),
    ("COc1ccnc(C(=O)Nc2cccc(C(=O)Nc3ccc(C(F)(F)F)cc3)c2)c1O", "25 to 74%"),
    ("COc1ccnc(C(=O)NC(COC(=O)CC(C)O[Si](C)(C)C(C)(C)C)C(=O)OC(C)C)c1O (centres unmarked)", "< 25%"),
]

---

tested on: Rhizoctonia solani (RHIZSO); experiment: microbe, parasite or virus in culture; assay type: cell-based; settings: Rhizoctonia solani, read-out: RHIZSO in vitro Growth Inhibition

# Test Smiles, inhibition at 25 ppm
measured = [
    ("COc1ccnc(C(=O)N[C@H]2COC(=O)[C@H](Cc3ccccc3)[C@@H](OC(=O)C(C)C)[C@H](C)OC2=O)c1OC(=O)c1ccccc1F", "< 80%"),
    ("COc1ccnc(C(=O)NC/C=C(\\C)CCC=C(C)C)c1O", "> 80%"),
    ("CC(C)C(=O)O[C@H]1[C@H](C)OC(=O)[C@@H](NC(=O)c2conc2O)COC(=O)[C@@H]1Cc1ccccc1", "< 80%"),
    ("CC1(C)CC(NC(=O)c2cncnc2O)CC(C)(C)C1", "< 80%"),
    ("COc1ccnc(C(=O)N[C@H]2COC(=O)[C@H](Cc3ccccc3)[C@@H](OC(=O)C(C)C)[C@H](C)OC2=O)c1OC(=O)c1ccnc(Cl)c1", "< 80%"),
    ("COc1cccc(Oc2ccc(NC(=O)c3nccc(OC)c3O)cc2)c1", "< 80%"),
]

---

Catalogue of compounds with associated pest or weed control at 100 ppm
tested on: Septoria tritici—SEPTTR; test: Leaf Blotch of Wheat, in vivo whole plant, 24 Hour Protectant; conditions: Zymoseptoria tritici, 24 h, 100 ppm spray, wheat, 24 hour protectant; control of fungal infection vs untreated plants; read-out: SEPTTR in vivo 1 Day Protectant
Property: pest or weed control at 100 ppm

# Compound, Reading
rows = [
    ("COc1ccnc(C(=O)Nc2ccc(Sc3cccc(C(F)(F)F)c3)cc2)c1O [Compound 445]", "25 to 74%"),
    ("COc1ccnc(C(=O)Nc2ccccc2Oc2ccc(C#N)cc2)c1O [Compound 419]", "< 25%"),
    ("COc1ccnc(C(=O)Nc2ccc(Oc3cccc(C)c3)cc2)c1O [Compound 416]", "< 25%"),
    ("CO/N=C(/c1ccc(NC(=O)c2nccc(OC)c2O)cc1)c1cccc(C(F)(F)F)c1 [Compound 408]", "25 to 74%"),
    ("CO/N=C(/c1ccc(NC(=O)c2nccc(OC)c2O)cc1)c1ccc(C(F)(F)F)cc1 [Compound 409]", "25 to 74%"),
    ("COc1ccnc(C(=O)Nc2ccc(C(=O)c3ccc(C(F)(F)F)cc3)cc2)c1O [Compound 406]", "25 to 74%"),
    ("COc1ccnc(C(=O)N[C@H]2COC(=O)[C@H](Cc3ccccc3)[C@@H](OC(C)=O)[C@H](C)OC2=O)c1O [Compound 385]", "25 to 74%"),
    ("COc1ccnc(C(=O)Nc2ccc(OC3CC(C)(C)OC(C)(C)C3)cc2)c1O [Compound 459]", "25 to 74%"),
    ("COc1ccnc(C(=O)Nc2ccc(Nc3cccc(C(F)(F)F)c3)cc2)c1O [Compound 410]", "< 25%"),
    ("COC(=O)C(COC(=O)COCc1ccccc1)NC(=O)c1nccc(OC)c1O (stereo not shown) [Compound 346]", "25 to 74%"),
    ("COc1ccnc(C(=O)NC(COC(=O)CC(C)OC(=O)CCc2ccccc2)C(=O)OC(C)C)c1O (stereo not shown) [Compound 353]", "< 25%"),
    ("C=C(C)C(=O)O[C@H]1[C@H](C)OC(=O)[C@@H](NC(=O)c2nccc(OC)c2O)COC(=O)[C@@H]1Cc1ccccc1 [Compound 386]", "25 to 74%"),
    ("COc1ccnc(C(=O)Nc2ccc(C(=O)Oc3cccc(C(F)(F)F)c3)cc2)c1O [Compound 451]", "< 25%"),
    ("COc1ccc(Oc2cccc(NC(=O)c3nccc(OC)c3O)c2)cc1 [Compound 432]", "< 25%"),
    ("COc1ccnc(C(=O)N[C@H]2COC(=O)[C@H](CC3CCCC3)[C@@H](OC(=O)C(C)C)[C@H](C)OC2=O)c1O [Compound 402]", "25 to 74%"),
    ("COc1ccnc(C(=O)NC(COC(=O)C(Cc2ccccc2)C(C)O[Si](C)(C)C(C)(C)C)C(=O)OC(C)C)c1O (stereo not shown) [Compound 357]", "< 25%"),
    ("COc1ccnc(C(=O)NC2COC(=O)CC3(CCCCC3)CC(=O)OC2)c1O [Compound 380]", "< 25%"),
    ("COc1ccnc(C(=O)Nc2cccc(Oc3ccccc3C)c2)c1O [Compound 412]", "< 25%"),
    ("COc1ccnc(C(=O)Nc2ccc(OCc3cccc(C(F)(F)F)c3)cc2)c1O [Compound 447]", "< 25%"),
    ("COc1ccnc(C(=O)N[C@H]2[C@@H](OC(C)=O)O[C@H](COC(C)=O)[C@@H](OC(C)=O)[C@@H]2OC(C)=O)c1O [Compound 335]", "< 25%"),
    ("COc1cccc(Oc2ccc(NC(=O)c3nccc(OC)c3O)cc2)c1 [Compound 434]", "< 25%"),
    ("COc1ccnc(C(=O)N[C@@H](COCc2ccccc2)C(=O)O[C@@H](C)[C@H](OC(=O)C(C)C)[C@@H](Cc2ccccc2)C(=O)OCc2ccccc2)c1O [Compound 342]", "25 to 74%"),
]

---

# Molecule, melting point
records = [
    ("CCOc1ccnc(C(=O)NC2CC(C)(C)CC(C)(C)C2)c1O [Compound 474]", "107 to 110 °C"),
    ("CC1(C)CC(NC(=O)c2cncnc2O)CC(C)(C)C1 [Compound 539]", "263 to 265 °C"),
    ("COc1ccnc(C(=O)NC2CCc3ccccc3C2=O)c1O (stereo not drawn) [Compound 285]", "174 to 179 °C"),
    ("COc1ccnc(C(=O)Nc2ccc(NC(=O)c3cccc(C(F)(F)F)c3)cc2)c1OC(C)=O [Compound 719]", "124 to 126 °C"),
    ("O=C(Nc1ccccc1Oc1ccccc1)c1cccnc1O [Compound 520]", "234 to 235 °C"),
    ("Cn1cc(C(=O)NC2CC(C)(C)CC(C)(C)C2)c(O)n1 [Compound 557]", "205 to 208 °C"),
    ("CCOC(=O)c1cc(Oc2ccc(C(F)(F)F)cc2)ccc1NC(=O)c1nccc(OC)c1O [Compound 427]", "145 to 147 °C"),
    ("CC1(C)CC(NC(=O)c2nccnc2O)CC(C)(C)C1 [Compound 533]", "248 to 250 °C (dec.)"),
    ("COc1ccnc(C(=O)Nc2ccc(Nc3cccc(C(F)(F)F)c3)cc2)c1O [Compound 410]", "204 to 205 °C"),
    ("CC(C)C(=O)O[C@H]1[C@H](C)OC(=O)[C@@H](NC(=O)c2nnccc2O)COC(=O)[C@@H]1Cc1ccccc1 [Compound 532]", "233 °C (dec.)"),
    ("COc1ccnc(C(=O)NC2CC(C)(C)CC(C)(C)C2)c1O [Compound 250]", "104 to 106 °C"),
    ("Cc1cc(C)c(C(=O)NC2CC(C)(C)CC(C)(C)C2)c(O)n1 [Compound 528]", "286 to 288 °C"),
    ("COc1ccnc(C(=O)Nc2ccc(C(=O)Oc3ccc(C(F)(F)F)cc3)cc2)c1OC(C)=O [Compound 717]", "203 to 205 °C"),
    ("COc1ccnc(C(=O)Nc2ccc(NC(=O)c3cccc(C(F)(F)F)c3)cc2)c1O [Compound 453]", "240 to 242 °C"),
    ("O=C(NC1CCCCC1)c1cccnc1O [Compound 515]", "190 to 192 °C"),
    ("COc1ccnc(C(=O)NC2CC3OC2C(C)C(OC(=O)C(C)C)C3C)c1O (stereo not drawn) [Compound 320]", "108.5 to 109.5 °C"),
    ("COc1ccnc(C(=O)Nc2ccc(Oc3cccc(C(F)(F)F)n3)cc2)c1O [Compound 463]", "140 to 141.5 °C"),
    ("COc1ccnc(C(=O)NC2CCN(Cc3ccccc3)CC2)c1O.O=C(O)/C=C\\C(=O)O [Compound 305]", "145 to 147 °C"),
    ("COc1ccnc(C(=O)Nc2ccc(Oc3cc(C(F)(F)F)cc(C(F)(F)F)n3)cc2)c1O [Compound 464]", "179 to 181 °C"),
    ("COCCC(=O)Oc1c(OC)ccnc1C(=O)Nc1ccc(C(=O)Nc2cccc(C(F)(F)F)c2)cc1 [Compound 713]", "164 to 167 °C"),
    ("O=C(NCc1ccc(Cl)cc1)c1ncccc1O [Compound 220]", "95 to 97 °C"),
]
